Biological target: human MASP-2 (human, UniProt O00187 16-686)
Sequence (O00187 16-686): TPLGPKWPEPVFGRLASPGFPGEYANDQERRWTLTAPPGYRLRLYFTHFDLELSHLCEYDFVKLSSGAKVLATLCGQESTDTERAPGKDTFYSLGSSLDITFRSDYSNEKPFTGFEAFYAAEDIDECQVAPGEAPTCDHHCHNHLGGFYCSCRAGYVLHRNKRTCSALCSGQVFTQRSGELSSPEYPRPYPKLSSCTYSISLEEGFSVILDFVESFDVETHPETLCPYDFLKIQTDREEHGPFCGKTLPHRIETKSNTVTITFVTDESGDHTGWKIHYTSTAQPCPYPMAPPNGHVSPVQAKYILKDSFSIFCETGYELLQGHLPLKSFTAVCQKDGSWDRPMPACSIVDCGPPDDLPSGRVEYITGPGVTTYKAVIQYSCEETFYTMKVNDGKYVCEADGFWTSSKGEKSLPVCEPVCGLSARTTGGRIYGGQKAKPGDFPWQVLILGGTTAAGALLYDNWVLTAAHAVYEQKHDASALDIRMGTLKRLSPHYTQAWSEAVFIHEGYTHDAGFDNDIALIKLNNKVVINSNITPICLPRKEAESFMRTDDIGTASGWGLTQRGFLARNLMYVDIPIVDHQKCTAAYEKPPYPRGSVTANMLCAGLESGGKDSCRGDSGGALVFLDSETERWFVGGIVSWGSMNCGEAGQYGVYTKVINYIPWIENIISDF
Test: cell-based or functional assay
endpoint: Functional IC50, C3b deposition, human serum Exp #4 (nM)
Quick note: give the figure in nM, leave out the unit.

[in] Answer with the recorded Functional IC50, C3b deposition, human serum Exp #4 for the binder listed here: scFv mother clone 3F22 (scFv) scFv: QVQLQQSGPGLVKPSQTLSLTCAISGDSVSSNSAAWNWIRQSPSRGLEWLGRTYYRSKWYNDYAVSVKSRITINPDTSKNQFSLQLNSVTPEDTAVYYCARDPFGVPFDIWGQGTMVTVSSKLSGSASAPKLEEGEFSEARVSYVLTQPPSVSVAPGQTARVTCGGNNIRSKNVHWYQQKPGQAPVLVVYDDTDRPSGIPERFSGSNSGNTATLTVSRVEAGDEADYYCQVWDTTTDHVVFGGGTKLTVLAAAGSEQKLISEEDLNSHHHHHH
[out] 68.8
